Tested on: Calu-6
Experimental protocol: In vitro combination study with tazemetostat, cell proliferation (Cell Titer Glo)
Condition set: 7 days tazemetostat pre-treatment, 6 days co-treatment with second agent
Assay endpoint: combinatorial effect with tazemetostat (Loewe volume class)

CN(C)C(=O)c1cc2cnc(Nc3ccc(N4CCNCC4)cn3)nc2n1C1CCCC1 [Ribociclib, ribociclib]: No eff.
C[C@]1(c2nc3c(C(N)=O)cccc3[nH]2)CCCN1 [Veliparib, veliparib]: No eff.

---

System: NCI-H661
Experimental protocol: In vitro combination study with tazemetostat, cell proliferation (Cell Titer Glo)
Condition set: 7 days tazemetostat pre-treatment, 6 days co-treatment with second agent
Assay endpoint: combinatorial effect with tazemetostat (Loewe volume class)

C[C@]1(c2nc3c(C(N)=O)cccc3[nH]2)CCCN1 [Veliparib, veliparib]: No eff.
C[C@]12C=CC(=O)C=C1CC[C@@H]1[C@@H]2[C@@H](O)C[C@@]2(C)[C@H]1CC[C@]2(O)C(=O)CO [Prednisolone, prednisolone]: No eff.
